Target: T1, ILT-2_6xHis recombinant protein (human, UniProt Q8NHL6 24-458)
T1 construct: monomers purified by SEC; also called recombinant 6xHIS tagged ILT2; recombinant human ILT2 proteins
T1 sequence (Q8NHL6 other isoform, or with tags, fused parts or gaps limits assumed): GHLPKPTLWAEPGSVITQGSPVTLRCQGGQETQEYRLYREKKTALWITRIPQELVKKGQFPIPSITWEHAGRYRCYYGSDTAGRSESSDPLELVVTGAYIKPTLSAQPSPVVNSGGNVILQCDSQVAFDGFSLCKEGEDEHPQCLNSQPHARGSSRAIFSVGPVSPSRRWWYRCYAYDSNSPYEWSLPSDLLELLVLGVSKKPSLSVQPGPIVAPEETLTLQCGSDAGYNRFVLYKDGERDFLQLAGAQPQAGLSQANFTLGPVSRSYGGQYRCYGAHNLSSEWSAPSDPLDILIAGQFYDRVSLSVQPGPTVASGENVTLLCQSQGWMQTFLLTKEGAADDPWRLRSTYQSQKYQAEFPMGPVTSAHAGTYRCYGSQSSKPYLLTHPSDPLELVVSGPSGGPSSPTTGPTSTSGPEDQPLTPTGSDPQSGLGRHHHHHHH
Assay: SPR, antibody captured on Protein-A, soluble ILT2 analyte
Catalogue of binders with associated koff

binder: 18E1 (antibody, human IgG1, V domains shown) VH: QVQLQQSGAELVKPGASVRLSCKASGYTFTAHTIHWVKQRSGQGLEWIGWLYPGSGSIKYNEKFKDKATLTADKSSSTVYMELSRLTSEDSAVYFCARHTNWDFDYWGQGTTLTVSS VL: NIVLTQSPASLAVSLGQRATISCKASQSVDYGGASYMNWYQQKPGQPPKLLIYAASNLESGIPARFSGSGSGTDLTLNIHPVEEEDAAMYYCQQSNEEPWTFGGGTKLEIK
koff [s⁻¹]: 0.00011

binder: 12D12 (antibody, human IgG1, V domains shown) VH: QVQLQQPGAELVKPGASVRMSCKASGYTFTSYWVHWVKQRPGQGLEWIGVIDPSDSYTSYNQNFKGKATLTVDTSSKTAYIHLSSLTSEDSAVYFCARGERYDGDYFAMDYWGQGTSVTVSS VL: DIVMTQSPASLSVSVGETVTITCRASENIYSNLAWYQQKQGKSPQLLVYAATNLADGVPSRFSGSRSGTQYSLKINSLQSEDFGTYYCQHFWNTPRTFGGGTKLEIK
koff [s⁻¹]: 0.00042

binder: 26D8 (antibody, human IgG1, V domains shown) VH: QVQLQQSGAELVKPGASVKLSCKASGYTFTEHTIHWIKQRSGQGLEWIGWFYPGSGSMKYNEKFKDKATLTADKSSSTVYMELTRLTSEDSAVYFCARHTNWDFDYWGQGTTLTVSS VL: DIVLTQSPASLAVSLGQRATISCKASQSVDYGGDSYMNWYQQKPGQPPKLLIYAASNLESGIPARFSGSGSGTDLTLNIHPVEEDDAAMYYCQQSNEEPWTFGGGTKLEIK
koff [s⁻¹]: 0.00022
